Entry source: patent US20250296938A1

system: MAPK phosphorylation; assay: Western MAPK cell-based phosphorylation assay, BxPC3; conditions: Homo sapiens, BXPC-3

[
  {
    "compound": "COCCNc1nc(-c2nccn2C)nc2sc(-c3cccc(OC)c3Cl)c(-c3ccccc3)c12 [drawing 472]",
    "target.of.assay": "MAPK phosphorylation",
    "IC50": "> 1 µM"
  }
]

====

molecular target: Rho-A (Homo sapiens); test: Ras GTP binding domain inhibition assay (Cy3-GTP/Cy5-GTP competition); settings: with SOS, read-out: Rho-A + SOS: % inh.

[
  {
    "compound": "COc1cccc(-c2sc3nc(-c4nccn4C)nc(N4CCC(OC)C4)c3c2-c2cscn2)c1 (stereo not drawn) [drawing 1002]",
    "inhibition at 20 µM": "1 to 25%"
  },
  {
    "compound": "CC(C)CN(C)C(=O)c1nc(-c2ccccn2)nc(O)c1O [drawing 933]",
    "inhibition at 20 µM": "51 to 75%"
  },
  {
    "compound": "COCCCNc1nc(-c2nccn2C)nc2sc(-c3ccn(C)n3)c(-c3ccccc3)c12 [drawing 1001]",
    "inhibition at 20 µM": "0%"
  },
  {
    "compound": "Cn1ccnc1-c1nc(O)c(O)c(C(=O)N2CCCC2)n1 [drawing 963]",
    "inhibition at 20 µM": "51 to 75%"
  },
  {
    "compound": "COc1nc(-c2ccccn2)nc(Nc2cnn(C)c2)c1OC [drawing 929]",
    "inhibition at 20 µM": "1 to 25%"
  },
  {
    "compound": "COCCNc1nc(-c2nccn2C)nc2sc(-c3ccccc3Cl)c(-c3ccc(OC)cc3)c12 [drawing 1011]",
    "inhibition at 20 µM": "0%"
  },
  {
    "compound": "Oc1nc(-c2cn3ccccc3n2)nc2c(-c3ccccn3)csc12 [drawing 951]",
    "inhibition at 20 µM": "1 to 25%"
  },
  {
    "compound": "COc1c(O)nc(-c2ccccn2)nc1Oc1ccc(C(=O)N(C)C)cc1 [drawing 1014]",
    "inhibition at 20 µM": "51 to 75%"
  },
  {
    "compound": "COc1c(O)nc(-c2ccccn2)nc1Oc1ccccc1 [drawing 948]",
    "inhibition at 20 µM": "76 to 100%"
  }
]

====

system: KRas Q61H mutant; assay: Ras GTP binding domain inhibition assay (Cy3-GTP/Cy5-GTP competition); set-up: species or system human; conditions: 20 μM; with SOS (Table 7A)
readout.name: KRas Q61H mutant + SOS: % inh.

[
  {
    "compound": "COc1c(F)cccc1-c1sc2nc(-c3nccn3C)nc(N[C@@H]3CC[C@H](OC)C3)c2c1-c1ccccc1 [drawing 887]",
    "test.value": "D (76-100% inhibition)"
  },
  {
    "compound": "COCCNC(=O)c1sc2nc(-c3nccn3C)nc(N[C@H]3C[C@@H](OC)C3)c2c1-c1ccccc1 [drawing 921]",
    "test.value": "D (76-100% inhibition)"
  },
  {
    "compound": "COC1CCC(Nc2nc(-c3nccn3C)nc3sc(-c4cccc5[nH]ncc45)c(-c4ccccc4)c23)C1 (stereo not shown) [drawing 888]",
    "test.value": "D (76-100% inhibition)"
  },
  {
    "compound": "COC1CCN(C(=O)c2sc3nc(-c4nccn4C)nc(N[C@H]4C[C@@H](OC)C4)c3c2-c2ccccc2)C1 (stereo partly shown) [drawing 923]",
    "test.value": "C (51-75% inhibition)"
  },
  {
    "compound": "CO[C@H]1CC[C@@H](Nc2nc(-c3nccn3C)nc3sc(-c4ccn(C)n4)c(C)c23)C1 [drawing 915]",
    "test.value": "D (76-100% inhibition)"
  },
  {
    "compound": "CO[C@H]1C[C@@H](Nc2nc(-c3ccccn3)nc3sccc23)C1 [drawing 902]",
    "test.value": "C (51-75% inhibition)"
  },
  {
    "compound": "COC1CCN(c2nc(-c3nccn3C)nc3sc(-c4cccc(O)c4F)c(-c4ccccc4)c23)C1 (stereo not shown) [drawing 890]",
    "test.value": "C (51-75% inhibition)"
  }
]

====

Target: KRas G12D mutant (Homo sapiens, UniProt P01116, G12D)
Construct: fused on or other part: His tag, used for capture on nickel-coated plates
Experiment: Ras GTP binding domain inhibition assay (Cy3-GTP/Cy5-GTP competition)
Conditions: 20 μM; with SOS; read-out: KRas G-12D mutant + SOS: % inh.
Excerpt: The following method was developed as specific assay for the following proteins: KRas wild type, KRas Q61H mutant, KRas G12C mutant, KRas G12D mutant, HRas wild type, Rac-1, and Rho-A. […] The small GTPases proteins: KRas wild type. KRas Q61H mutant, KRas G12C mutant, KRas G12D mutants, HRas wild type, Rac-1, and Rho-A were expressed as His-tagged proteins. In addition, the Guanosine nucleotide Exchange Factor (GEF) Sos protein (residues 556-1049) was expressed as a His-tagged protein. […]
compounds and their reported inhibition at 20 µM
readout.name: inhibition at 20 µM

[
  {
    "compound": "COCCn1cc(-c2sc3nc(-c4nccn4C)nc(N4CCC(OC)C4)c3c2-c2ccccc2)cn1.Cl (centres unmarked)",
    "test.value": "51 to 75%"
  },
  {
    "compound": "COc1cccc(-c2sc3nc(-c4nccn4C)nc(N4CCC(OC)C4)c3c2-c2ccccc2)c1F.Cl (centres unmarked) [drawing 838]",
    "test.value": "51 to 75%"
  },
  {
    "compound": "COCCc1ccc(Oc2nc(-c3ccccn3)nc(O)c2OC)cc1 [drawing 814]",
    "test.value": "26 to 50%"
  },
  {
    "compound": "O=C(NC1CCCC1)c1nc(-c2ccccn2)nc(O)c1O [drawing 812]",
    "test.value": "1 to 25%"
  },
  {
    "compound": "COC1CCN(c2nc(-c3nccn3C)nc3sc(-c4ccnn4C)c(-c4ccccc4)c23)C1.Cl (centres unmarked)",
    "test.value": "51 to 75%"
  },
  {
    "compound": "COCCNc1nc(-c2nccn2C)nc2sc(-c3cc(OC)ccc3Cl)c(-c3ccc(OC)cc3)c12 [drawing 877]",
    "test.value": "26 to 50%"
  },
  {
    "compound": "Cn1ccnc1-c1nc(O)c(O)c(C(=O)NC2CCC2)n1 [drawing 825]",
    "test.value": "26 to 50%"
  },
  {
    "compound": "COCC(C)Nc1nc(-c2nccn2C)nc2sc(-c3ccn(C)n3)c(-c3ccccc3)c12 (centres unmarked) [drawing 864]",
    "test.value": "26 to 50%"
  },
  {
    "compound": "Cn1ccnc1-c1nc(O)c(O)c(C(=O)NC2CCCC2)n1 [drawing 827]",
    "test.value": "26 to 50%"
  },
  {
    "compound": "COc1cc(-c2sc3nc(-c4nccn4C)nc(N4CCC(OC)C4)c3c2-c2ccccc2)ccn1.Cl (centres unmarked)",
    "test.value": "51 to 75%"
  },
  {
    "compound": "O=C(NC1CCC1)c1nc(-c2ccccn2)nc(O)c1O [drawing 809]",
    "test.value": "26 to 50%"
  },
  {
    "compound": "COc1cccc(-c2csc3c(O)nc(-c4nccn4C)nc23)c1Cl [drawing 878]",
    "test.value": "1 to 25%"
  },
  {
    "compound": "COCC(C)Nc1nc(-c2nccn2C)nc2sc(-c3ccccc3Cl)c(-c3cscn3)c12 (centres unmarked) [drawing 854]",
    "test.value": "51 to 75%"
  },
  {
    "compound": "O=C(c1nc(-c2ccccn2)nc(O)c1O)N1CCc2ccccc2C1 [drawing 832]",
    "test.value": "26 to 50%"
  },
  {
    "compound": "COC1CCN(c2nc(-c3nccn3C)nn3cc(-c4ccccc4)c(-c4ccccc4)c23)C1 (centres unmarked) [drawing 796]",
    "test.value": "1 to 25%"
  },
  {
    "compound": "COCCNc1nc(-c2nccn2C)nc2sc(-c3cc(OC)ccc3Cl)c(-c3ccccc3)c12 [drawing 871]",
    "test.value": "1 to 25%"
  },
  {
    "compound": "COC1CCN(c2nc(-c3nccn3C)nc3sc(-c4ccc(CO)cc4)c(-c4ccccc4)c23)C1.Cl (centres unmarked)",
    "test.value": "51 to 75%"
  },
  {
    "compound": "COc1nc(-c2ccccn2)nc(Nc2cnn(C)c2)c1OC [drawing 794]",
    "test.value": "0%"
  },
  {
    "compound": "COC1CCN(c2nc(-c3nccn3C)nc3sc(-c4ccc(N)nc4C)c(-c4ccccc4)c23)C1.Cl (centres unmarked)",
    "test.value": "1 to 25%"
  },
  {
    "compound": "COC1CCN(c2nc(-c3nccn3C)nc3sc(-c4ccncc4C)c(-c4ccccc4)c23)C1.Cl (centres unmarked)",
    "test.value": "26 to 50%"
  },
  {
    "compound": "COc1ccc(-c2c(-c3ccn(C)n3)sc3nc(-c4nccn4C)nc(N4CCC(OC)C4)c23)cc1 (centres unmarked) [drawing 868]",
    "test.value": "1 to 25%"
  },
  {
    "compound": "COCC1CN(c2nc(-c3nccn3C)nc3sc(-c4cccc(OC)c4F)c(-c4ccc(OC)cc4)c23)C1 [drawing 805]",
    "test.value": "51 to 75%"
  },
  {
    "compound": "COCCn1ccnc1-c1nc(O)c2scc(-c3ccccn3)c2n1 [drawing 852]",
    "test.value": "51 to 75%"
  },
  {
    "compound": "Oc1nc(-c2ncc3n2CCCC3)nc2c(-c3ccccn3)csc12 [drawing 833]",
    "test.value": "51 to 75%"
  },
  {
    "compound": "Cn1ccc(-c2sc3nc(-c4nccn4C)nc(NCC4CCOC4)c3c2-c2ccccc2)n1 (centres unmarked) [drawing 861]",
    "test.value": "1 to 25%"
  },
  {
    "compound": "O=C(NCc1ccccc1)c1nc(-c2ccccn2)nc(O)c1O [drawing 821]",
    "test.value": "51 to 75%"
  },
  {
    "compound": "COC1CCN(c2nc(-c3nccn3C)nc3sc(-c4ccccc4Cl)c(-c4cscn4)c23)C1 (centres unmarked) [drawing 849]",
    "test.value": "51 to 75%"
  },
  {
    "compound": "CN(Cc1ccccc1)C(=O)c1nc(-c2ccccn2)nc(O)c1O [drawing 799]",
    "test.value": "26 to 50%"
  },
  {
    "compound": "COCC(C)Nc1nc(-c2nccn2C)nc2sc(-c3cccc(OC)c3)c(-c3cscn3)c12 (centres unmarked) [drawing 855]",
    "test.value": "51 to 75%"
  },
  {
    "compound": "Oc1nc(-c2cn3ccccc3n2)nc2c(-c3ccccn3)csc12 [drawing 816]",
    "test.value": "1 to 25%"
  },
  {
    "compound": "COCCCNc1nc(-c2nccn2C)nc2sc(-c3ccn(C)n3)c(-c3ccc(OC)cc3)c12 [drawing 870]",
    "test.value": "1 to 25%"
  },
  {
    "compound": "Oc1nc(-c2nccn2Cc2ccccn2)nc2c(-c3ccccn3)csc12 [drawing 851]",
    "test.value": "51 to 75%"
  },
  {
    "compound": "COCCn1cc(Nc2nc(-c3ccccn3)nc(OC)c2OC)cn1 [drawing 793]",
    "test.value": "1 to 25%"
  },
  {
    "compound": "COC1CCN(c2nc(-c3nccn3C)nc3sc(-c4ccn(C)n4)c(-c4ccccc4)c23)CC1 [drawing 856]",
    "test.value": "26 to 50%"
  },
  {
    "compound": "COc1ccc(-c2sc3nc(-c4nccn4C)nc(N4CCC(OC)C4)c3c2-c2ccccc2)cn1.Cl (centres unmarked)",
    "test.value": "51 to 75%"
  }
]
